Molecular target: Mycobacterial beta-ketoacyl-[acyl-carrier-protein] synthase III (Mycobacterium tuberculosis)
Test: Inhibition of Mycobacterium tuberculosis FabH at 100 uM
The source made the active and inactive calls. The calls are words filed in the database; no cut-off is given here.
attributeMeasured: Activity

O=C1N(Cc2ccc(Oc3ccccc3)cc2)CCS1(=O)=O
inactive
S=C1SCCN1Cc1cccnc1
inactive
O=C1N(CCc2ccccc2)CCS1(=O)=O
inactive
S=C1SCCN1Cc1ccc(Oc2ccccc2)cc1
inactive
O=C1SCCN1Cc1ccc(Oc2ccc(C3CCCC3)cc2)cc1
inactive
O=C1N(Cc2ccc(Oc3ccc(C4CCCC4)cc3)cc2)CCS1(=O)=O
inactive
O=C1SCCN1Cc1ccccc1
inactive
O=C1N(Cc2ccccc2)CCS1(=O)=O
inactive
CCCN1CCS(=O)(=O)C1=O
inactive
CN1CCSC1=S
inactive
S=C1SCCN1Cc1ccc(Oc2ccc(C3CCCC3)cc2)cc1
inactive
O=C1SCCN1Cc1ccc(Oc2ccccc2)cc1
inactive
S=C1SCCN1CCc1ccccc1
inactive
O=C1SCCN1Cc1cccnc1
inactive
CN1CCS(=O)(=O)C1=O
inactive
CCCN1CCSC1=S
inactive
S=C1SCCN1Cc1ccccc1
inactive
